target or system: LHRH (Rattus norvegicus)
Construct: endogenous in cells
Sequence (P30969 whole entry): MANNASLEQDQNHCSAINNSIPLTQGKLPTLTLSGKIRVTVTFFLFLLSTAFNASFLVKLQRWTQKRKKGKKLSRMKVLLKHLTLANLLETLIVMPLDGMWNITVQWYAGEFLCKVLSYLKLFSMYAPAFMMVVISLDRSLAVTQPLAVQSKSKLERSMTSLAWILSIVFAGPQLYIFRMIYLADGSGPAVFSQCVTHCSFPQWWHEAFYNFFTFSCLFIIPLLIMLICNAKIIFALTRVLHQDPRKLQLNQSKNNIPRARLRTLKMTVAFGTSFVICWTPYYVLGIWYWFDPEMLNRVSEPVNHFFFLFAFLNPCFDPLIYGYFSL
assay remarks: in vitro test for LHRH antagonist potency (pA2)
Format: cell-based
cond: negative logarithm of the antagonist concentration required to shift the response curve produced by the agonist leuprolide to two-fold higher concentration
Where a SMILES comes first, the peptide text is derived from it. Side-chain parts run from the residue outwards. [ ]: non-standard residue; d: D form. The star is where a group is joined. d2Nal(N,N-(CH2)3CO) = O=C1CCCN1[C@H](Cc1ccc2ccccc2c1)C(=O)*; Shikimoyl = O=C(C1=C[C@@H](O)[C@@H](O)[C@H](O)C1)*; dPhe(4-Cl) = N[C@H](Cc1ccc(Cl)cc1)C(=O)O; NMeY = CN[C@@H](Cc1ccc(O)cc1)C(=O)O; hArg = N=C(N)NCCCC[C@H](N)C(=O)O; d3Pal = N[C@H](Cc1cccnc1)C(=O)O
So I've got a bunch of molecules here, and I need their Kb values.
Answers are plain numbers, in nM.

[[record]]
molecule = "CC(C)C[C@H](NC(=O)[C@@H](CCCCNC(=O)CNC(=O)C1=C[C@@H](O)[C@@H](O)[C@H](O)C1)NC(=O)[C@H](Cc1ccc(O)cc1)N(C)C(=O)[C@H](CO)NC(=O)[C@@H](Cc1cccnc1)NC(=O)[C@@H](Cc1ccc(Cl)cc1)NC(=O)[C@@H](Cc1ccc2ccccc2c1)N1CCCC1=O)C(=O)N[C@@H](CCCNC(=N)N)C(=O)N1CCC[C@H]1C(=O)N[C@H](C)C(N)=O [Example 3] ({d2Nal(N,N-(CH2)3CO)}-[dPhe(4-Cl)][d3Pal]S[NMeY][dK]([Gly-Shikimoyl])LRP[dA]-NH2)"
experimental_result = 0.0209


Please report the recorded Kb for CC(C)C[C@H](NC(=O)[C@@H](CCCCNC(=O)CNC(=O)C1=C[C@@H](O)[C@@H](O)[C@H](O)C1)NC(=O)[C@H](Cc1ccc(O)cc1)N(C)C(=O)[C@H](CO)NC(=O)[C@@H](Cc1cccnc1)NC(=O)[C@@H](Cc1ccc(Cl)cc1)NC(=O)[C@@H](Cc1ccc2ccccc2c1)N1CCCC1=O)C(=O)N[C@@H](CCCCNC(=N)N)C(=O)N1CCC[C@H]1C(=O)N[C@H](C)C(N)=O [Example 5] ({d2Nal(N,N-(CH2)3CO)}-[dPhe(4-Cl)][d3Pal]S[NMeY][dK]([Gly-Shikimoyl])L[hArg]P[dA]-NH2) . 0.00646
